# target or test system: acetylcholine receptor
# protocol text: SPR, AchR immobilized on CM5 chip, peptide 10 uM
measured attribute: Binding affinity (RU)

Examples with their reported Binding affinity (RU) follow.
Input line: Given the entry KKEMER [6mer-1-774] , report its measured Binding affinity (RU).
Output line: 21

Input line: Query (binder): KKMDIK [6mer-1-771] ; field requested: Binding affinity (RU)
Output line: 17

Input line: Name the reported Binding affinity (RU) value associated with the binder KKNEFK [6mer-1-783]
Output line: 29

P: RKLRSK [6mer-1-372]
Q: RKDKER [6mer-1-735]
Input line: Which value of Binding affinity (RU) is greater, the one for P or the one for Q ? Record your answer as the label of the chosen record.
Output line: P
(P: 145 RU, Q: 19 RU)
